conditions: in cyclohexane, 302.75 K
Reported property: solubility (mole fraction)
Answer field: number only, no words.

Look up solubility (mole fraction) for this molecule: "CC(=O)O[C@H]1CC[C@@]2(C)C(=CC[C@@H]3[C@@H]2CC[C@]2(C)C(C(C)=O)=CC[C@@H]32)C1"
0.00363

###

conditions: in ethanol, 317.55 K
Reported property: solubility (mole fraction)
Reply with the value as a number alone.

Query: solubility (mole fraction); subject: "CC(=O)O[C@H]1CC[C@@]2(C)C(=CC[C@@H]3[C@@H]2CC[C@]2(C)C(C(C)=O)=CC[C@@H]32)C1"
0.00432

###

settings: in cyclohexane, 336.45 K
Reported property: solubility (mole fraction)
Enter the number alone.

Quick check: solubility (mole fraction) of "CC(=O)O[C@H]1CC[C@@]2(C)C(=CC[C@@H]3[C@@H]2CC[C@]2(C)C(C(C)=O)=CC[C@@H]32)C1" ?
0.0162

###

details: in acetone, 284.75 K
Reported property: solubility (mole fraction)
Please state the value as a number alone, without comment.

What solubility (mole fraction) value was documented for this compound, "CC(=O)O[C@H]1CC[C@@]2(C)C(=CC[C@@H]3[C@@H]2CC[C@]2(C)C(C(C)=O)=CC[C@@H]32)C1" ?
0.00538

###

conditions: in methanol, 282.75 K
Reported property: solubility (mole fraction)
Please state the value as a number alone, without comment.

Fill in the blank: the reported solubility (mole fraction) of "CC(=O)O[C@H]1CC[C@@]2(C)C(=CC[C@@H]3[C@@H]2CC[C@]2(C)C(C(C)=O)=CC[C@@H]32)C1" is ____.
0.000402

###

conditions: in ethanol, 307.55 K
Reported property: solubility (mole fraction)

State the recorded solubility (mole fraction) for this entry: "CC(=O)O[C@H]1CC[C@@]2(C)C(=CC[C@@H]3[C@@H]2CC[C@]2(C)C(C(C)=O)=CC[C@@H]32)C1"
0.00277

###

details: in ethanol, 300.95 K
Reported property: solubility (mole fraction)
Returns: the value as a bare number; no unit string appended.

# solubility (mole fraction) lookup, item "CC(=O)O[C@H]1CC[C@@]2(C)C(=CC[C@@H]3[C@@H]2CC[C@]2(C)C(C(C)=O)=CC[C@@H]32)C1"
0.0021

###

details: in methanol, 320.05 K
Reported property: solubility (mole fraction)
API note: the answer field is a bare number with no unit suffix.

Please report the recorded solubility (mole fraction) for "CC(=O)O[C@H]1CC[C@@]2(C)C(=CC[C@@H]3[C@@H]2CC[C@]2(C)C(C(C)=O)=CC[C@@H]32)C1" .
0.00231

###

conditions: in acetone, 293.95 K
Reported property: solubility (mole fraction)
Form field (numeric): enter value without unit.

Which solubility (mole fraction) reading was recorded for the compound "CC(=O)O[C@H]1CC[C@@]2(C)C(=CC[C@@H]3[C@@H]2CC[C@]2(C)C(C(C)=O)=CC[C@@H]32)C1" ?
0.00731

###

settings: in ethanol, 327.05 K
Reported property: solubility (mole fraction)

GET /values?readout=solubility (mole fraction)&item= "CC(=O)O[C@H]1CC[C@@]2(C)C(=CC[C@@H]3[C@@H]2CC[C@]2(C)C(C(C)=O)=CC[C@@H]32)C1"
0.0065

###

settings: in cyclohexane, 309.25 K
Reported property: solubility (mole fraction)
// response body must contain only the number

Sample "CC(=O)O[C@H]1CC[C@@]2(C)C(=CC[C@@H]3[C@@H]2CC[C@]2(C)C(C(C)=O)=CC[C@@H]32)C1" — what was its solubility (mole fraction)?
0.0049
